- experiment: folding stability dG unfold from chymotrypsin proteolysis; higher = more stable
Use 4 kJ/mol as the dividing line for folding stability dG unfold, with the line itself on the t side and lower values as f.

SAGGSAGGSAGGPMEPIELTFMIPHPNGHPIVAKTEIWRMKNGFFIKPEIYNPDGNPIPSAGGSAGGSAGGS [r10_1056_TrROS] ... f
SAGGSAGGSIEIFKSPEGWYVRIWFPGKPQVIPIDDAEDLKNFEIPIPNGRPIKVEILPPKDLSAGGSAGGS [r12_730_TrROS] ... t
SAGGSAGGRWYIMIEIRFPGNGRQFSFMIPIPPGDEVDIKLDELAEWFGFPNVKVDIQVMPLEKSAGGSAGG [r6_722_TrROS] ... t
SAGGSAMTVKVRLRVRRRVFNEDGELVAEEELELEVEVEVRPPPPPPPPPLTAEELAEKLGLEPEDSAGGSA [r15_572_TrROS_Hall] ... t
MRIEIRVEKVEDGFYKVTIRLEETGETLELVVPKSLEEAKAAAEELLRELFPDVKVTEIRVERVPLPEEDLS [r1_80_TrROS_Hall] ... t
SAGGSAGGSALIIVAPDGFIISIEWPNGKPRTIMMPPDEIDEILEDDGIKDIEIQKLPPGASAGGSAGGSAG [r3_141_TrROS] ... t
SAVEIEFWFPGGMSVEEFVNEFSKILPGLRDVDIGVEPYPETDMWKVTATIRIVPPPSPEDQEEMQKNKSAG [r14_645_TrROS] ... t
SASFTLTPVTVTLSPDPETGAILAPVLATAGDHPVFGLAYVDPLDPSRAYYRIYYPPSDLVEYAVVPLPSAG [r14_178_TrMRF] ... f

Query string: API: above_or_equal(metric=folding stability dG unfold, cutoff=4 kJ/mol) for item SAGGSAGGSARVFIVITYQNPGDGKPRQITIPIDIKDGKITLDDLKELFPGYPITNISIFPLSAGGSAGGSA [r18_494_TrROS]
Result string: t

* * *

- experiment: folding stability dG unfold from chymotrypsin proteolysis; higher = more stable
Please respond with reported folding stability dG unfold for every item in the list.
Give bare numbers, in kcal/mol.

SAGPPWEPVPITPEIIDKLADKLNPGFPISLQVYRHPDGRVKISIRNEGSGKEYTLVVDPDGDIEIEPSAGG [r19_70_TrROS] ... 3.52

List the reported folding stability dG unfold of each sequence below.
1. SAGGMIPEELIRKLFEDGKPVPLEQIVELIEKLTGRPVRLEEGEDKFRIVVLDPDTPELLDEIEIDFSAGGS [r8_105_TrMRF]
2. SAGGSAGGSAGMAEKLPSLSLFYLPETGDLVLIREETYVDPNDPDKSIVKQEIYVLPPEYSAGGSAGGSAGG [r17_241_TrMRF]
3. SAGGSAGGSAGSWELSYRFPGVQIEVTYSPEWGFITEIKVQPLPPPPPPSPEDAKEMKEKSAGGSAGGSAGG [r11_320_TrROS]

Result string:
1: 1.57; 2: 1.74; 3: 2.56

List the reported folding stability dG unfold of each sequence below.
1. SAGGMTLVLRFPSKEEALEALRELAEALGLEVEITKIEIEEREVEDPETGEKRREVLITIEVKVKPPSAGGS [r16_587_TrROS_Hall]
2. SKVIYVPPGATVEEILAAIKANKGKTVTIVMSREELERLKKALEEAGYEVEEVKVFEEEPYVVVKIKVKPSA [r9_1138_TrROS_Hall]
3. SAWNFKIEEVEVDPNDGRIWFTVKIPPNNPELAEEIAEELQDYGIKVKLINPDLPPGQTIIVQIEVKDPSAG [r14_354_TrROS]

Result string:
[4.62, 3.72, 2.09]

* * *

- experiment: folding stability dG unfold from chymotrypsin proteolysis; higher = more stable
Please respond with reported folding stability dG unfold for every item in the list.
Give bare numbers, in kcal/mol.

Below are worked cases with known answers.
SAGGSMISTLSESVDPAKNTTYYLNLYTEGSRAYGALVTVTTDPATGTKTITTKFPALPEVTTTETVASAGG [r13_615_JUSTAS] ... 0.489
SDYYIINIKIEVYYDGKPVREIPIFILVPPEQALMIAETIAEMLPGYKVKIKINVYRIPEDDPELREAFGSA [r9_782_TrROS] ... 3.26
SMKIEIIERNEDGEYVLVRITFEDGEEITIVAKTEEEAKEAAKEIAKELFPDVKIKKIEVVPLEDLPEELSA [r9_137_TrROS_Hall] ... 0.251
SAGGSAGIEERLKKLAEELGLEVKVTKVEVKVDGKEEVVVEVEVEPPPPPVEVKELSEEERKKAEESAGGSA [r15_256_TrROS_Hall] ... 0.99

List the reported folding stability dG unfold of each sequence below.
1. SAGGSSSTPVSSSTFTTPDGVTVSVTTTLEPDASGNPYTVTTETFPDGTVTTTTYRNGETQTTTVASAGGSA [r2_182_JUSTAS]
2. SAGGSAGGSKKKKKKVKKKKVYRVKIKTKDGKLIEIEVSVEDLEKIKKAAEKAGFEIVEIEPVSAGGSAGGS [r12_891_TrROS_Hall]
3. SAGGDGPPKFEPISIPIGDGVIKIWRSPNGSIHLEIMPPGGKPVASKEYPFPDGRKLKLDIQVKPPEDSAGG [r13_584_TrROS]
4. SAGGSAGGSAAEVEVETLELEIDGVKITVTRVRNADGELLYFARIEVRPAPPPPPVSLEDLSAGGSAGGSAG [r3_68_TrROS_Hall]

Result string:
[1.33, 3.86, 0.252, 3.25]

* * *

- experiment: folding stability dG unfold from trypsin proteolysis; higher = more stable
Use 3 kcal/mol as the dividing line for folding stability dG unfold, with the line itself on the Yes side and lower values as No.

Query string: API: above_or_equal(metric=folding stability dG unfold, cutoff=3 kcal/mol) for item SAGGSAGGSAGGKIKDIDVQQMPDGWYWVEIEIPDPNGEEVKITIMFPPGHSVDDALDQLSAGGSAGGSAGG [r7_54_TrROS]
Result string: No

* * *

- experiment: folding stability dG unfold from trypsin proteolysis; higher = more stable
outcomeMeasure: folding stability dG unfold
In your response, put the unit directly after the numeric value.

Below are worked cases with known answers.
SAGGGTYIEIKVTYSDGTTETFTVPAKPEDIETVVKEIEDKLKELGGTITSIKIENGKITIEATIPDSAGGS [r16_662_TrMRF] ... 2.41 kcal/mol
SMVYVFEVPEGDPEKAEELIRAKLEEEFGYKVESVATPGGGGARVVLVVDPVEDKAYAEVIPFAPDGSPASA [r9_173_TrMRF] ... -0.529 kcal/mol
SAGGSAGGSAGYESVVNELKRKGYKVEVKKTPDGTYVVTVTKKDGTVETITLGPEGGKISSAGGSAGGSAGG [r17_503_JUSTAS] ... 2.67 kcal/mol

List the reported folding stability dG unfold of each sequence below.
1. SAGGSAGGSAGITIEFPEEENNFRVENPNDGKKHEIPGTPDEIKEYALDKFPGRPIKIHPSAGGSAGGSAGG [r11_614_TrROS]
2. SAGGSAGGSSVEVTEDPSTGKLTVTVPPDLTSVTIKEKDKTITIPLPPGASITLPSGTVTVALSAGGSAGGS [r20_26_JUSTAS]
3. SAGGKYGYKIEIEIAIFRIPPGAEVEPERIGNIEIYRIRFPDGNWLIMIRIKVKPMPPPPPEKKDNDDSAGG [r13_804_TrROS]
4. SAGGSAGGSMVFESTSVYTFPEQNTVVVTKTTTTVTKTPDGSSSVSTSTTTTVLTVPPPEPLVSAGGSAGGS [r12_277_JUSTAS]
5. SAGMKYTAEVKVKEKDKEIDVTVSDDATFTDPEGKETTFKIGSEEELKKALEEIFPEKYPYEILSVKVLSAG [r14_41_JUSTAS]
6. SAGGNNIMIWIRKNPKEGKRKIMIYTDSPSWVEMIAEEAKDPGFKIVGPMTVEEAAQKMGFPPDLFISAGGS [r16_438_TrROS]
7. SAGGSAGGSAGGKPIYILAEHPSNGKVVLLPVDSPEKAIEFAKALADVPDFKIAHVDAFGSAGGSAGGSAGG [r11_951_TrMRF]

Result string:
1. 0.11 kcal/mol
2. 1.56 kcal/mol
3. 3.61 kcal/mol
4. 2.64 kcal/mol
5. -0.65 kcal/mol
6. 1.09 kcal/mol
7. 0.341 kcal/mol

List the reported folding stability dG unfold of each sequence below.
1. SAGGSAGGSALAEELAAKYPGLQVEVTRVEVEREVTDADGRKRTERVERLEIRVVKPGEELSAGGSAGGSAG [r3_358_TrROS_Hall]
2. SAGGSAGGKIKVEYNPENNMYRVTIKLPGGKIKIYIPPGQTEEQGEKNVKHMAKELLKKNGIKISAGGSAGG [r6_679_TrROS]
3. SAGGKPKKTILIPLIVPPGKPESAIKALAEFLEAKGYELERIEPVPVGDRLRLVAIFRKPDGTEIKVGSAGG [r13_421_TrMRF]

Result string:
1. 0.5 kcal/mol
2. -0.0228 kcal/mol
3. 1.66 kcal/mol

Query string: May I ask what folding stability dG unfold has been recorded for SAGGSAKYYYIVAEIDLPNKKVRFVKKVKKGDVEKFKAEIKKAFPGKKIKVKVIEFESEEEAKKAASAGGSA [r15_889_TrMRF] ?
Result string: 3.13 kcal/mol
